# Test: physchem
Attribute measured: logP
Number only, no unit.

Below are worked cases with known answers.
[[record]]
compound = "CCCCC(CC)COCC(O)CO (stereo not drawn) [3-[(2-Ethylhexyl)oxy]-1,2 propandiol]"
attribute_measured = "logP"
value_measured = 2.1

[[record]]
compound = "OCC(CO)(CO)CO [2,2 Bishydroxymethyl 1,3 Propanediol]"
attribute_measured = "logP"
value_measured = -2.4

[[record]]
compound = "CC(O)CCO (stereo not drawn)"
attribute_measured = "logP"
value_measured = -0.7

[[record]]
compound = "OCCCCCCO"
attribute_measured = "logP"
value_measured = -0.1

[[record]]
compound = "CCC(CO)(CO)CO [2-Ethyl-2-Hydroxymethyl 1,3 Propandiol]"
attribute_measured = "logP"
value_measured = -0.8


Could you now consider this next compound?
Return reported logP; argument: "OCCCCCO"
-0.6
